# TEST METHOD NOTES: inhibitors of cytokine-induced nitrite release, dose response, cell-based, Griess absorbance, INS-1E, dry powder, set 3 (AID 488870)
# MEASUREMENT PARAMETERS: INS-1E cytokine-induced nitrite, Griess absorbance, 48 h; at 19.5 µM (top of the series)
Could you please report measured activity change, negative = inhibition for the items listed next?
Give your result in % as a bare value.

// recorded activity change, negative = inhibition for COc1ccc(S(=O)(=O)N(C)C[C@@H]2Oc3c(NC(=O)c4cnccn4)cccc3C(=O)N([C@@H](C)CO)C[C@H]2C)cc1 : -9.05

So, COc1ccc(S(=O)(=O)N(C)C[C@@H]2Oc3c(NS(=O)(=O)c4ccc(C)cc4)cccc3C(=O)N([C@@H](C)CO)C[C@H]2C)cc1 ? Its activity change, negative = inhibition was -5.68

Memo: COc1ccc(S(=O)(=O)N(C)C[C@@H]2Oc3c(NC(=O)c4cc(C)nn4C)cccc3C(=O)N([C@@H](C)CO)C[C@H]2C)cc1 , reported activity change, negative = inhibition: -2.17

Item: COc1ccc(S(=O)(=O)N(C)C[C@H]2Oc3c(NC(=O)Nc4cccc5ccccc45)cccc3C(=O)N([C@@H](C)CO)C[C@@H]2C)cc1 | activity change, negative = inhibition: -9.04

In plain terms, COc1ccc(S(=O)(=O)N(C)C[C@@H]2Oc3c(NC(=O)Nc4cccc5ccccc45)cccc3C(=O)N(C(C)C)C[C@H]2C)cc1 has a documented activity change, negative = inhibition of -11.1

Reported activity change, negative = inhibition of COc1ccc(S(=O)(=O)N(C)C[C@@H]2Oc3c(NC(=O)c4ccncc4)cccc3C(=O)N([C@@H](C)CO)C[C@H]2C)cc1 : -12.3

Lookup result for C[C@@H]1CN([C@@H](C)CO)C(=O)c2cccc(NC(=O)Nc3ccc(F)cc3)c2O[C@H]1CN(C)S(=O)(=O)c1ccc(F)cc1 ; measured activity change, negative = inhibition: -6.48

---

Record form. Attribute: activity change, negative = inhibition. Fill in for each entry.
# TEST METHOD NOTES: inhibitors of cytokine-induced nitrite release, dose response, cell-based, Griess absorbance, INS-1E, dry powder, set 3 (AID 488870)
# MEASUREMENT PARAMETERS: INS-1E cytokine-induced nitrite, Griess absorbance, 48 h; at 19.5 µM (top of the series)
Report as a plain number; the unit % is understood.

// activity change, negative = inhibition lookup, compound = COc1ccc(S(=O)(=O)N(C)C[C@@H]2Oc3ccc(NC(=O)Nc4cccc5ccccc45)cc3C(=O)N([C@@H](C)CO)C[C@H]2C)cc1 , result: -15.4

Form: compound = C[C@@H]1CN([C@@H](C)CO)C(=O)c2cccc(NC(=O)Nc3ccccc3)c2O[C@H]1CN(C)S(=O)(=O)c1ccc(F)cc1 ; activity change, negative = inhibition = -6.44

Short answer for C[C@@H]1CN([C@@H](C)CO)C(=O)c2cccc(NC(=O)Nc3cccc4ccccc34)c2O[C@H]1CN(C)S(=O)(=O)c1ccccc1 : activity change, negative = inhibition was -19.1

Reported activity change, negative = inhibition of C[C@@H]1CN([C@H](C)CO)C(=O)c2cccc(NC(=O)Nc3ccc(F)cc3)c2O[C@H]1CN(C)S(=O)(=O)c1ccc(Cl)cc1 : -5.33

---

For each entry below, report its activity change, negative = inhibition value.
# TEST METHOD NOTES: inhibitors of cytokine-induced nitrite release, dose response, cell-based, Griess absorbance, INS-1E, dry powder, set 3 (AID 488870)
# MEASUREMENT PARAMETERS: INS-1E cytokine-induced nitrite, Griess absorbance, 48 h; at 19.5 µM (top of the series)
Active and inactive are the calls of the source.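 How the source made its calls: active means a drop in nitrite signal whose fitted half-maximal concentration is at most ten times the top tested dose; inconclusive means flat fit with 30 to 70% inhibition, or poor curve fit; inactive means the rest.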

// activity change, negative = inhibition value for COc1ccc(S(=O)(=O)N(C)C[C@@H]2Oc3c(NC(=O)Nc4cccc5ccccc45)cccc3C(=O)N([C@@H](C)CO)C[C@H]2C)cc1OC : -18.5% (inactive)

Record C[C@@H]1CN([C@@H](C)CO)C(=O)c2cccc(NC(=O)Nc3cccc4ccccc34)c2O[C@H]1CN(C)S(C)(=O)=O , field activity change, negative = inhibition: 9.52% (inactive)

Lab book: activity change, negative = inhibition of C[C@@H]1CN([C@@H](C)CO)C(=O)c2cccc(NC(=O)Nc3cccc4ccccc34)c2O[C@H]1CN(C)S(=O)(=O)c1ccc(Cl)cc1 noted as -22.9% (inactive)

Item: C[C@@H]1CN([C@@H](C)CO)C(=O)c2cccc(NC(=O)Nc3cccc4ccccc34)c2O[C@H]1CN(C)CC1CC1 | activity change, negative = inhibition: -0.187% (inactive)

---

# TEST METHOD NOTES: inhibitors of cytokine-induced nitrite release, dose response, cell-based, Griess absorbance, INS-1E, dry powder, set 3 (AID 488870)
# MEASUREMENT PARAMETERS: INS-1E cytokine-induced nitrite, Griess absorbance, 48 h; at 19.5 µM (top of the series)
EXPERIMENTAL READOUT: activity change, negative = inhibition (%)
Reply numerically in %, unit not repeated.

activity change, negative = inhibition recorded for this molecule, COc1ccc(S(=O)(=O)N(C)C[C@@H]2Oc3c(NC(=O)Nc4ccc5c(c4)OCO5)cccc3C(=O)N([C@@H](C)CO)C[C@H]2C)cc1 , is -8.76

Summary for this molecule, Cc1noc(C)c1NC(=O)N(C)C[C@@H]1Oc2c(NC(=O)Nc3cccc4ccccc34)cccc2C(=O)N([C@@H](C)CO)C[C@H]1C : activity change, negative = inhibition is -7.11

Consider Cc1ccc(S(=O)(=O)N(C)C[C@@H]2Oc3c(NC(=O)Nc4ccc(F)cc4)cccc3C(=O)N([C@@H](C)CO)C[C@H]2C)cc1 . Its measured activity change, negative = inhibition is -6.25

According to the records, this molecule C[C@@H]1CN([C@@H](C)CO)C(=O)c2cccc(NC(=O)Nc3cccc4ccccc34)c2O[C@H]1CN(C)S(=O)(=O)c1cccs1 displays activity change, negative = inhibition of -14.1

Documented activity change, negative = inhibition of COc1ccc(S(=O)(=O)N(C)C[C@@H]2Oc3c(NS(=O)(=O)c4ccc(F)cc4)cccc3C(=O)N([C@@H](C)CO)C[C@H]2C)cc1 : 9.8

Just so you know, measured activity change, negative = inhibition for COc1ccc(S(=O)(=O)N(C)C[C@@H]2Oc3c(NS(=O)(=O)c4ccccc4)cccc3C(=O)N([C@@H](C)CO)C[C@H]2C)cc1 came out at 2.87

The recorded activity change, negative = inhibition for entry C[C@@H]1CN([C@@H](C)CO)C(=O)c2cccc(NC(=O)Nc3cccc4ccccc34)c2O[C@H]1CN(C)S(=O)(=O)c1cn(C)cn1 equals -10.7

Field activity change, negative = inhibition (entry COc1ccc(S(=O)(=O)N(C)C[C@@H]2Oc3c(NC(=O)C4CC4)cccc3C(=O)N([C@@H](C)CO)C[C@H]2C)cc1 ) reads -4.99

Consider C[C@@H]1CN([C@H](C)CO)C(=O)c2cccc(NC(=O)Nc3ccccc3)c2O[C@H]1CN(C)S(=O)(=O)c1ccc(Cl)cc1 . Its measured activity change, negative = inhibition is 4.79

Briefly, activity change, negative = inhibition measured for CNC[C@@H]1Oc2c(NC(=O)Nc3cccc4ccccc34)cccc2C(=O)N([C@@H](C)CO)C[C@H]1C : 3.1

Lookup result for COc1ccc(S(=O)(=O)N(C)C[C@@H]2Oc3c(NS(=O)(=O)c4ccc(Cl)cc4)cccc3C(=O)N([C@@H](C)CO)C[C@H]2C)cc1 ; measured activity change, negative = inhibition: -7.18

So, C[C@H]1CN([C@@H](C)CO)C(=O)c2cccc(NC(=O)NC3CCCCC3)c2O[C@@H]1CN(C)S(C)(=O)=O ? Its activity change, negative = inhibition was 3.92

Recorded result, C[C@@H]1CN([C@@H](C)CO)C(=O)c2cccc(NS(=O)(=O)c3ccccc3)c2O[C@H]1CN(C)Cc1ccc(C(F)(F)F)cc1 , activity change, negative = inhibition: -12.5

Entry COc1ccc(S(=O)(=O)Nc2cccc3c2O[C@@H](CN(C)S(=O)(=O)c2ccc(OC)cc2)[C@H](C)CN([C@@H](C)CO)C3=O)cc1 — recorded activity change, negative = inhibition = -10.4

Entry COc1ccc(S(=O)(=O)N(C)C[C@@H]2Oc3c(NC(=O)c4ccc(-c5nccs5)cc4)cccc3C(=O)N([C@@H](C)CO)C[C@H]2C)cc1 ; activity change, negative = inhibition = -2.29

Looking up COc1ccc(S(=O)(=O)N(C)C[C@H]2Oc3c(NC(=O)Nc4cccc5ccccc45)cccc3C(=O)N([C@H](C)CO)C[C@H]2C)cc1 , I see its activity change, negative = inhibition listed as -1.83

Entry COc1ccc(S(=O)(=O)N(C)C[C@@H]2Oc3c(NC(=O)Nc4ccc(F)cc4)cccc3C(=O)N([C@@H](C)CO)C[C@H]2C)cc1 — recorded activity change, negative = inhibition = -7.65

Per the records, this molecule ( C[C@@H]1CN([C@@H](C)CO)C(=O)c2cccc(NC(=O)Nc3ccc(F)cc3)c2O[C@H]1CN(C)S(=O)(=O)c1ccc(Cl)cc1 ) has activity change, negative = inhibition equal to -9.62

The recorded activity change, negative = inhibition for entry COc1ccc(S(=O)(=O)N(C)C[C@@H]2Oc3c(NC(=O)Nc4ccccc4)cccc3C(=O)N([C@@H](C)CO)C[C@H]2C)cc1 equals -7.93

The reported value for COc1ccc(NC(=O)Nc2cccc3c2O[C@@H](CN(C)S(=O)(=O)c2ccc(OC)cc2)[C@H](C)CN([C@@H](C)CO)C3=O)cc1 in terms of activity change, negative = inhibition is -3.9

Measured activity change, negative = inhibition, Cc1ccc(S(=O)(=O)N(C)C[C@@H]2Oc3c(NC(=O)Nc4ccccc4)cccc3C(=O)N([C@H](C)CO)C[C@H]2C)cc1 : 11.6

In plain terms, C[C@@H]1CN([C@@H](C)CO)C(=O)c2cccc(NC(=O)Nc3cccc4ccccc34)c2O[C@H]1CN(C)S(=O)(=O)c1ccc2c(c1)oc(=O)n2C has a documented activity change, negative = inhibition of -7.4

// C[C@@H]1CN([C@@H](C)CO)C(=O)c2cccc(NC(=O)Nc3cccc4ccccc34)c2O[C@H]1CN(C)C(=O)Nc1ccccc1 : activity change, negative = inhibition value = -16.1

Entry COc1ccc(S(=O)(=O)N(C)C[C@@H]2Oc3c(NC(=O)NC(C)C)cccc3C(=O)N([C@@H](C)CO)C[C@H]2C)cc1 ; activity change, negative = inhibition = 7.35

C[C@@H]1CN([C@@H](C)CO)C(=O)c2cccc(NC(=O)Nc3cccc4ccccc34)c2O[C@H]1CN(C)S(=O)(=O)c1ccc2c(n1)N(C)CCO2 yielded activity change, negative = inhibition of -13.9

Looking up COc1ccc(S(=O)(=O)N(C)C[C@@H]2Oc3c(NC(=O)Nc4ccccc4)cccc3C(=O)N([C@H](C)CO)C[C@H]2C)cc1 , I found its activity change, negative = inhibition recorded as -11

Given item C[C@@H]1CN([C@@H](C)CO)C(=O)c2cccc(NC(=O)Nc3ccccc3)c2O[C@H]1CN(C)S(=O)(=O)c1ccc(Cl)cc1 , the value recorded as its activity change, negative = inhibition is -8
